Entries and their self-cleavage kobs at 2500 uM GlcN6P values follow.
B1: glmS ribozyme (parent)
chain: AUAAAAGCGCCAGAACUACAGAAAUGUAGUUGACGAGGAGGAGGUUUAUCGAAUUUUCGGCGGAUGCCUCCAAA

variants of: B1; experiment: self-cleavage kobs at 2500 uM GlcN6P; higher = faster cleavage; RNA array; conditions: with glucosamine-6-phosphate
Variants at the floor of the assay were thinned out.

Sequence variant	self-cleavage kobs at 2500 uM GlcN6P
A14G A33U G60U	< 1e-05 s⁻¹
A6C G44A G51U	< 1e-05 s⁻¹
G43A G44A U47A G59C	< 1e-05 s⁻¹
G51A U57G	< 1e-05 s⁻¹
C34U G40C G43A	< 1e-05 s⁻¹
C10U G35U A39U A48G	< 1e-05 s⁻¹
A36U A39U U45C C58U	< 1e-05 s⁻¹
G29U G59C	< 1e-05 s⁻¹
U46G U54C C58G U65A	< 1e-05 s⁻¹
C11G A48G	< 1e-05 s⁻¹
A42G G63U	< 1e-05 s⁻¹
C8G U46G	< 1e-05 s⁻¹
G7C C11G A12U	< 1e-05 s⁻¹
A12C G13U U30C G60A G66A	< 1e-05 s⁻¹
G44C G51A U55C U56C	< 1e-05 s⁻¹
G35C U46C A52C U54C	< 1e-05 s⁻¹
C16U C34G A53C	< 1e-05 s⁻¹
C11G C61A G62C	< 1e-05 s⁻¹
G13A U46G G59U C70U	< 1e-05 s⁻¹
C8G U55A	< 1e-05 s⁻¹
G35A C68U	< 1e-05 s⁻¹
G13U G40A A42C U65G	< 1e-05 s⁻¹
C16G G41C G62A A64G	< 1e-05 s⁻¹
C11G G13C G38C C58A	< 1e-05 s⁻¹
C10G G37C A48U C61A U69C	< 1e-05 s⁻¹
C34U A36G G44A C58A C68U	< 1e-05 s⁻¹
G7A A42C A52G U55A	< 1e-05 s⁻¹
G35U G60A	< 1e-05 s⁻¹
U45C C61A	< 1e-05 s⁻¹
C8U A42G G43U U49G	< 1e-05 s⁻¹
C34U A48G	< 1e-05 s⁻¹
A39U G40C	0.00244 s⁻¹
A12U U31C U47G	0.000645 s⁻¹
G7A A14C G32U G40A	< 1e-05 s⁻¹
U45G U55A	0.00385 s⁻¹
A15C A36U A39G	< 1e-05 s⁻¹
U31C G32A G38C G43A	< 1e-05 s⁻¹
C34A G40C U46C U47A G59C	< 1e-05 s⁻¹
G41A U49C U57A G59U C68G	< 1e-05 s⁻¹
C10G G43A A48G U54G C58A A64U	< 1e-05 s⁻¹
G38U G43C A53U	< 1e-05 s⁻¹
A33C A39G	0.000373 s⁻¹
A14U U56A	0.00186 s⁻¹
C8U G41A	< 1e-05 s⁻¹
G63A U69G	5.94e-05 s⁻¹
G37C U47G U69G	0.000138 s⁻¹
C8A A36G	< 1e-05 s⁻¹
G9C A53G	< 1e-05 s⁻¹
A6C G40C	< 1e-05 s⁻¹
G41U G44C	< 1e-05 s⁻¹
A12G A53G G63C	< 1e-05 s⁻¹
C8U G60U C68U	< 1e-05 s⁻¹
A12C G40A U65A	0.000293 s⁻¹
A48C U55C G63U	< 1e-05 s⁻¹
G35A C71U	< 1e-05 s⁻¹
G44U C71U	9.61e-05 s⁻¹
G40A C70U	0.000417 s⁻¹
U31G G32A U46G A52U	< 1e-05 s⁻¹
G9C C16G G38U U65A	< 1e-05 s⁻¹
A39G A42U A64C	< 1e-05 s⁻¹
G35U A42U U49A A53U	< 1e-05 s⁻¹
G41U U45G	0.000339 s⁻¹
C16U U55C	0.00585 s⁻¹
G32U U45G	6.97e-05 s⁻¹
G41A A53G U55A	0.000666 s⁻¹
G38U A64C	< 1e-05 s⁻¹
